assay-summary: NCI Yeast Anticancer Drug Screen. Data for the mec2-1 strain (AID 157)
condition-parameters: S. cerevisiae mec2-1 strain, stronger effect = higher value; at 50.0 µM unless noted
Compounds without any hit were thinned out: in the full panel of roughly 79,000, 15% have a hit.
Decision: growth inhibition >= -10% yields 1, all other cases yield -1.

compound | group
CCOC(=O)C(=O)/C(=C/N1C(=O)CC(=O)NC1=S)C(=O)OCC | -1
CC(=O)C12C[C@](C#N)(N3CCCCCC3)C1C=Cc1ccccc12 (stereo partly specified) | -1
COc1ccc(-c2nc(N)c3ncn(C4OC(CO)C(O)C4O)c3n2)cc1 (stereo unspecified) | -1
CCOC(=O)c1nc2ccccc2nc1NCc1cc(OC)c(OC)c(OC)c1 | -1
O=C(CCCC(=O)N/N=C/c1ccccc1O)N/N=C\c1ccccc1O | 1
Cc1cccc(Cl)c1NC(=O)c1c(Cl)c(Cl)c(Cl)c(Cl)c1C(=O)O | 1
CN(C)C1=CC(=S)NC(c2ccccc2)C1 (stereo unspecified) | -1
O=C(O)CCNC(=O)CNC(=O)OCc1ccccc1 | 1
COc1nc(NC2OC(COC(C)=O)C(OC(C)=O)C(OC(C)=O)C2OC(C)=O)c(N=CC=Nc2c(NC3OC(COC(C)=O)C(OC(C)=O)C(OC(C)=O)C3OC(C)=O)nc(OC)[nH]c2=O)c(=O)[nH]1 (stereo unspecified) | 1
O=C(Cc1ccc(CC(=O)NCCCCc2ccccc2)cc1)NCCCCc1ccccc1 | 1
CCOC(=O)c1ccc(NCc2ccc(CNc3ccc(C(=O)OCC)cc3)cc2)cc1 | -1
CCN(CC)C(=O)c1cc(OC)c(C(=O)N(CC)CC)cc1OC | 1
COc1ccc(/C=C(/NC(=O)c2ccccc2)C(=O)O)c(OC)c1 | 1
Nc1ncnc2c1c(-c1ccc(Cl)cc1)cn2-c1ccc(I)cc1 | 1
C/C=C\c1noc2c1C(=O)OC(C)C2 (stereo unspecified) | 1
CCOC(=O)N1CCN(C(=O)CC(C)=O)CC1 | -1
COC1OC(C)C(OC(=O)c2ccccc2)C(OC(=O)c2ccccc2)C1OC(=O)c1ccccc1 (stereo unspecified) | 1
COc1cc2ccc3c4ccccc4cnc3c2cc1OC | 1
CCS(=O)(=O)c1ccc(NC(=O)OC2CCC3(C)C(=CCC4C3CCC3(C)C(C(C)CCCC(C)C)CCC43)C2)cc1 (stereo unspecified) | 1
Cc1noc(NC(=O)Nc2ccccc2F)c1C#N | -1
